# Test system: rat liver microsomes
# test_summary: Inhibition of microsomal lipid peroxidation induced by tert-butyl hydroperoxide (TBARS)
# Type: biochemical
# condition_set: rat liver microsomes, 1 mM tert-butyl hydroperoxide, TBARS
The entries below come with measured pIC50 values attached.
pIC50 is a log-scale quantity: -log10 of the concentration expressed in molar.

What pIC50 value was documented for this compound, COc1cc(C2Oc3cc(-c4oc5cc(O)cc(O)c5c(=O)c4O)ccc3OC2COC(=O)CCCCCCCCCCC(=O)OCC2Oc3ccc(-c4oc5cc(O)cc(O)c5c(=O)c4O)cc3OC2c2ccc(O)c(OC)c2)ccc1O (stereo not shown) ? 4.23

What pIC50 value was documented for this compound, `COc1cc([C@H]2Oc3cc([C@H]4Oc5cc(O)cc(O)c5C(=O)[C@@H]4O)ccc3O[C@@H]2COC(=O)CCCCCCCCCCC(=O)OC[C@H]2Oc3ccc([C@H]4Oc5cc(O)cc(O)c5C(=O)[C@@H]4O)cc3O[C@@H]2c2ccc(O)c(OC)c2)ccc1O` ? 4.47

What pIC50 value was documented for this compound, COc1cc(C2Oc3cc(-c4oc5cc(O)cc(O)c5c(=O)c4O)ccc3OC2CO)ccc1O (stereo not shown) [Compound 6, 2,3-Dehydrosilybin] ? 4.84

What pIC50 value was documented for this compound, `COc1cc([C@H]2Oc3cc([C@H]4Oc5cc(O)cc(O)c5C(=O)[C@@H]4O)ccc3O[C@@H]2CO)ccc1O` ? 4.27

====

The entries below come with measured Oxidation potential Ep1 values attached.
# test_summary: Square wave voltammetry (in situ / ex situ) at pyrolytic graphite electrode
# Type: physicochemical
# condition_set: SWV, vs. Ag/AgCl/3 M KCl, pH 7.4, n = 3; ascribed to oxidation of C-20 OH
// note: answer is a bare numeric in V

Solved entries (count: 4):
COc1cc(C2Oc3cc(-c4oc5cc(O)cc(O)c5c(=O)c4O)ccc3OC2CO)ccc1O (centres unmarked) [Compound 6, 2,3-Dehydrosilybin]; 0.54
COc1cc(C2Oc3cc(-c4oc5cc(O)cc(O)c5c(=O)c4O)ccc3OC2COC(=O)CCCCCCCCCCC(=O)OCC2Oc3ccc(-c4oc5cc(O)cc(O)c5c(=O)c4O)cc3OC2c2ccc(O)c(OC)c2)ccc1O (centres unmarked) [Compound 7]; 0.57
COc1cc([C@H]2Oc3cc([C@H]4Oc5cc(O)cc(O)c5C(=O)[C@@H]4O)ccc3O[C@@H]2COC(=O)CCCCCCCCCCC(=O)OC[C@H]2Oc3ccc([C@H]4Oc5cc(O)cc(O)c5C(=O)[C@@H]4O)cc3O[C@@H]2c2ccc(O)c(OC)c2)ccc1O [Compound 3]; 0.56
COc1cc([C@@H]2Oc3cc([C@H]4Oc5cc(O)cc(O)c5C(=O)[C@@H]4O)ccc3O[C@H]2COC(=O)CCCCCCCCCCC(=O)OC[C@@H]2Oc3ccc([C@H]4Oc5cc(O)cc(O)c5C(=O)[C@@H]4O)cc3O[C@H]2c2ccc(O)c(OC)c2)ccc1O [Compound 4]; 0.57

What Oxidation potential Ep1 value was documented for this molecule, COc1cc([C@@H]2Oc3cc([C@H]4Oc5cc(OCc6ccc(COc7cc(O)c8c(c7)O[C@H](c7ccc9c(c7)O[C@@H](c7ccc(O)c(OC)c7)[C@H](CO)O9)[C@@H](O)C8=O)cc6)cc(O)c5C(=O)[C@@H]4O)ccc3O[C@H]2CO)ccc1O [Compound 9] ? 0.57

====

# test_summary: Square wave voltammetry (in situ / ex situ) at pyrolytic graphite electrode
# Assay type: physicochemical
# condition_set: SWV, vs. Ag/AgCl/3 M KCl, pH 7.4, n = 3; ascribed to oxidation of C-20 OH
# Experimental: The monomeric flavonolignans and their dimers were analyzed using in situ voltammetry with the working electrode (PGE: pyrolytic graphite electrode) dipped in the supporting electrolyte containing the analytes and/or ex situ voltammetric analysis (adsorptive transfer, AdT technique). For this purpose, the PGE was first dipped into a 5 µL aliquot of the studied sample. […]
property_name: Oxidation potential Ep1 (V)
// note: answer is a bare numeric in V

Solved entries (count: 3):
COc1cc(C2Oc3cc([C@H]4Oc5cc(OCc6ccc(COc7cc(O)c8c(c7)O[C@H](c7ccc9c(c7)OC(c7ccc(O)c(OC)c7)C(CO)O9)[C@@H](O)C8=O)cc6)cc(O)c5C(=O)[C@@H]4O)ccc3OC2CO)ccc1O (stereo partly shown); 0.56
COc1cc([C@H]2Oc3cc([C@H]4Oc5cc(OCc6ccc(COc7cc(O)c8c(c7)O[C@H](c7ccc9c(c7)O[C@H](c7ccc(O)c(OC)c7)[C@@H](CO)O9)[C@@H](O)C8=O)cc6)cc(O)c5C(=O)[C@@H]4O)ccc3O[C@@H]2CO)ccc1O; 0.56
COc1cc([C@H]2Oc3cc([C@H]4Oc5cc(O)cc(O)c5C(=O)[C@@H]4O)ccc3O[C@@H]2COC(=O)CCCCCCCCCCC(=O)OC[C@@H]2Oc3ccc([C@H]4Oc5cc(O)cc(O)c5C(=O)[C@@H]4O)cc3O[C@H]2c2ccc(O)c(OC)c2)ccc1O; 0.55

Please find the next compound below.
What Oxidation potential Ep1 value was documented for this compound, COc1cc(C2Oc3cc([C@H]4Oc5cc(OCc6cccc(COc7cc(O)c8c(c7)O[C@H](c7ccc9c(c7)OC(c7ccc(O)c(OC)c7)C(CO)O9)[C@@H](O)C8=O)c6)cc(O)c5C(=O)[C@@H]4O)ccc3OC2CO)ccc1O (stereo partly shown) ? 0.52

====

# test_summary: Square wave voltammetry (in situ / ex situ) at pyrolytic graphite electrode
# Type: physicochemical
# condition_set: SWV, vs. Ag/AgCl/3 M KCl, pH 7.4, n = 3; oxidation of resorcinol moiety (ring A)
property_name: Oxidation potential Ep2 (V)
// note: answer is a bare numeric in V

Solved entries (count: 5):
COc1cc([C@H]2Oc3cc([C@H]4Oc5cc(O)cc(O)c5C(=O)[C@@H]4O)ccc3O[C@@H]2COC(=O)CCCCCCCCCCC(=O)OC[C@@H]2Oc3ccc([C@H]4Oc5cc(O)cc(O)c5C(=O)[C@@H]4O)cc3O[C@H]2c2ccc(O)c(OC)c2)ccc1O; 0.83
COc1cc(C2Oc3cc([C@H]4Oc5cc(OCc6cccc(COc7cc(O)c8c(c7)O[C@H](c7ccc9c(c7)OC(c7ccc(O)c(OC)c7)C(CO)O9)[C@@H](O)C8=O)c6)cc(O)c5C(=O)[C@@H]4O)ccc3OC2CO)ccc1O (stereo partly drawn); 0.87
COc1cc(C2Oc3cc([C@H]4Oc5cc(OCc6ccc(COc7cc(O)c8c(c7)O[C@H](c7ccc9c(c7)OC(c7ccc(O)c(OC)c7)C(CO)O9)[C@@H](O)C8=O)cc6)cc(O)c5C(=O)[C@@H]4O)ccc3OC2CO)ccc1O (stereo partly drawn); 0.80
COc1cc(C2Oc3cc(-c4oc5cc(O)cc(O)c5c(=O)c4O)ccc3OC2COC(=O)CCCCCCCCCCC(=O)OCC2Oc3ccc(-c4oc5cc(O)cc(O)c5c(=O)c4O)cc3OC2c2ccc(O)c(OC)c2)ccc1O (stereo not drawn); 0.99
COc1cc([C@@H]2Oc3cc([C@H]4Oc5cc(O)cc(O)c5C(=O)[C@@H]4O)ccc3O[C@H]2COC(=O)CCCCCCCCCCC(=O)OC[C@@H]2Oc3ccc([C@H]4Oc5cc(O)cc(O)c5C(=O)[C@@H]4O)cc3O[C@H]2c2ccc(O)c(OC)c2)ccc1O; 0.83

Please find the next compound below.
What Oxidation potential Ep2 value was documented for this compound, `COc1cc([C@H]2Oc3cc([C@H]4Oc5cc(OCc6ccc(COc7cc(O)c8c(c7)O[C@H](c7ccc9c(c7)O[C@H](c7ccc(O)c(OC)c7)[C@@H](CO)O9)[C@@H](O)C8=O)cc6)cc(O)c5C(=O)[C@@H]4O)ccc3O[C@@H]2CO)ccc1O` ? 0.81

====

# test_summary: Cytotoxicity, MTT test, range over all cells other than NAK
# Assay type: cell-based
# condition_set: human (HUVEC, HepG2) and mouse (BALB/c 3T3), all cells used other than NAK (HUVEC, BALB/c 3T3, HepG2), read-out: Cytotoxicity IC50, range over cell types
property_name: IC50 at 24 h

Solved entries (count: 3):
COc1cc(C2Oc3cc(-c4oc5cc(O)cc(O)c5c(=O)c4O)ccc3OC2CO)ccc1O (stereo not shown) [Compound 6, 2,3-Dehydrosilybin]; 12 to 59 µM
COc1cc(C2Oc3cc(-c4oc5cc(O)cc(O)c5c(=O)c4O)ccc3OC2COC(=O)CCCCCCCCCCC(=O)OCC2Oc3ccc(-c4oc5cc(O)cc(O)c5c(=O)c4O)cc3OC2c2ccc(O)c(OC)c2)ccc1O (stereo not shown); 99 to 173 µM
COc1cc([C@H]2Oc3cc([C@H]4Oc5cc(O)cc(O)c5C(=O)[C@@H]4O)ccc3O[C@@H]2CO)ccc1O; 60 to 166 µM

Please find the next compound below.
What IC50 at 24 h value was documented for this compound, `COc1cc([C@H]2Oc3cc([C@H]4Oc5cc(O)cc(O)c5C(=O)[C@@H]4O)ccc3O[C@@H]2COC(=O)CCCCCCCCCCC(=O)OC[C@H]2Oc3ccc([C@H]4Oc5cc(O)cc(O)c5C(=O)[C@@H]4O)cc3O[C@@H]2c2ccc(O)c(OC)c2)ccc1O` ? 8 to 44 µM
